Target: AgCyk3
Assay: SPOT peptide array binding signal intensity (averaged, normalized) (arbitrary units (background-subtracted, floor 0; scale differs between SH3 domains)); higher = stronger binding of the SH3 domain to the peptide
What SPOT peptide array binding signal intensity was measured for each of the following?
# print the numeric value only

Task item: Quickly give me recorded SPOT peptide array binding signal intensity for AATTSTPPLPRRRAT
Reply: 3

Task item: Specify SPOT peptide array binding signal intensity for NMLKKKPLKKPLKRF and stop.
Reply: 1

Task item: Supply SPOT peptide array binding signal intensity value. Item: NNQRRKPLLLNIGDH
Reply: 0.5

Task item: Answer with the recorded SPOT peptide array binding signal intensity of YLTRPLPSTPNEDSR only.
Reply: 42

Task item: Provide only the value of recorded SPOT peptide array binding signal intensity for RKRAPTPPAPSRSEK
Reply: 2

Task item: Quickly give me recorded SPOT peptide array binding signal intensity for HPRFVSPRIPSRIVK
Reply: 1

Task item: Answer with the recorded SPOT peptide array binding signal intensity of SKIRPTPRKPSRMAT only.
Reply: 3

Task item: Specify reported SPOT peptide array binding signal intensity for the binder shown: IHTRRPSSTSQYLIR
Reply: 4

Task item: Please give measured SPOT peptide array binding signal intensity of the following entry: TIRRRAPLSLLESHT
Reply: 1

Task item: Consider the binder YVRRRPRVRLEPLLS and give its recorded SPOT peptide array binding signal intensity.
Reply: 6.5

Task item: Give SPOT peptide array binding signal intensity for the following binder: RRLRDKYKLPIVDAD
Reply: 1

Task item: Find the measured SPOT peptide array binding signal intensity of GLRRARYKFPGQQKI and report it.
Reply: 3

Task item: Look up SPOT peptide array binding signal intensity of LLLLFVPDSPYDPAI and report it.
Reply: 3

Task item: Answer with reported SPOT peptide array binding signal intensity of RRARRQMGIPTISQV
Reply: 5

Task item: Quick one: give measured SPOT peptide array binding signal intensity for PLQSKIPMLPSRRTM
Reply: 3

Task item: Quickly give me recorded SPOT peptide array binding signal intensity for RLSFFFPLDPAYIRN
Reply: 7
